Assay: The drug is tested on Z-020 corresponding to rabbit gut metagenome with ENA study accession number: PRJEB37062 and ENA sample accession number: ERS12561819 for biotransformation under anaerobic condition. The drug concentrations were measured over 9 timepoints collected between 0 and 24 hours of incubation by liquid-chromatography-coupled mass spectrometry (LC–MS); further: call rule not given here
Conditions: 2 µM
Assay Endpoint: Bacterial Biotransformation

Compound: CC1Cc2ccccc2N1NC(=O)c1ccc(Cl)c(S(N)(=O)=O)c1 (stereo not drawn) [INDAPAMIDE]
Obs Value: Compound NOT metabolized

Compound: CC(=O)O[C@]1(C(C)=O)CC[C@H]2[C@@H]3C=C(C)C4=CC(=O)CC[C@]4(C)[C@H]3CC[C@@]21C [MEGESTROL ACETATE]
Obs Value: Compound metabolized

Compound: COC1=C(OC)C(=O)C(CCCCCCCCCCO)=C(C)C1=O [IDEBENONE]
Obs Value: Compound metabolized

Compound: CCCC(C)(COC(N)=O)COC(=O)NC(C)C (stereo not drawn) [CARISOPRODOL]
Obs Value: Compound metabolized

Compound: COc1ccc(C(CN(C)C)C2(O)CCCCC2)cc1 (stereo not drawn) [VENLAFAXINE]
Obs Value: Compound NOT metabolized

Compound: C#C[C@]1(OC(C)=O)CC[C@H]2[C@@H]3CCC4=C[C@@H](OC(C)=O)CC[C@@H]4[C@H]3CC[C@@]21C [ETHYNODIOL DIACETATE]
Obs Value: Compound metabolized

Compound: C#C[C@]1(OC(C)=O)CC[C@H]2[C@@H]3CCC4=CC(=O)CC[C@@H]4[C@H]3CC[C@@]21C [NORETHINDRONE ACETATE]
Obs Value: Compound metabolized

Compound: COc1ccc2cc([C@H](C)C(=O)O)ccc2c1 [NAPROXEN]
Obs Value: Compound NOT metabolized

----------
Assay: The drug is tested on WLS-007 corresponding to human gut metagenome with ENA study accession number: PRJEB37062 and ENA sample accession number: ERS12561742 for biotransformation under anaerobic condition. The drug concentrations were measured over 9 timepoints collected between 0 and 24 hours of incubation by liquid-chromatography-coupled mass spectrometry (LC–MS)
Conditions: 2 µM
Assay Endpoint: Bacterial Biotransformation

Compound: CCN(CC)CCOC(=O)C1(C2CCCCC2)CCCCC1
Obs Value: Compound metabolized
//
Compound: CC(C)(C)NC[C@H](O)COc1nsnc1N1CCOCC1.O=C(O)/C=C\C(=O)O [TIMOLOL MALEATE]
Obs Value: Compound NOT metabolized
//
Compound: CCN(CC)CCNC(=O)c1ccc(NC(C)=O)cc1 [ACECAINIDE]
Obs Value: Compound NOT metabolized
//
Compound: CC(N)C12CC3CC(CC(C3)C1)C2 (configuration not stated)
Obs Value: Compound NOT metabolized
//
Compound: CCOC(=O)C1=C[C@]2(CC)CCCN3CCc4c(n1c1ccccc41)[C@@H]32
Obs Value: Compound NOT metabolized
//
Compound: O=C(CCCN1CCC2(CC1)C(=O)NCN2c1ccccc1)c1ccc(F)cc1
Obs Value: Compound NOT metabolized
//
Compound: CCN(C(C)=O)c1cccc(-c2ccnc3c(C#N)cnn23)c1
Obs Value: Compound metabolized
//
Compound: CCOc1ccccc1OCCN[C@H](C)Cc1ccc(OC)c(S(N)(=O)=O)c1.Cl [TAMSULOSIN HYDROCHLORIDE]
Obs Value: Compound NOT metabolized
//
Compound: CC(C)(C)NCC(O)COc1cccc2c1CC(O)C(O)C2 (configuration not stated)
Obs Value: Compound NOT metabolized
//
Compound: CN1[C@@H]2CC[C@H]1C[C@@H](OC(=O)[C@H](CO)c1ccccc1)C2
Obs Value: Compound metabolized
//
Compound: CC(=O)Nc1ccc(OC(C)=O)cc1 [DIACETAMATE]
Obs Value: Compound metabolized
//
Compound: C#C[C@]1(OC(C)=O)CC[C@H]2[C@@H]3CCC4=C[C@@H](OC(C)=O)CC[C@@H]4[C@H]3CC[C@@]21C [ETHYNODIOL DIACETATE]
Obs Value: Compound metabolized
//
Compound: OCCN(CCO)c1nc(N2CCCCC2)c2nc(N(CCO)CCO)nc(N3CCCCC3)c2n1
Obs Value: Compound metabolized
//
Compound: Nc1nc(N)nc(-c2cc(Cl)ccc2Cl)n1.O=C(O)/C=C\C(=O)O [IRSOGLADINE MALEATE]
Obs Value: Compound NOT metabolized
//
Compound: C=C[C@H]1CN2CC[C@H]1C[C@H]2[C@H](O)c1ccnc2ccc(OC)cc12.C=C[C@H]1CN2CC[C@H]1C[C@H]2[C@H](O)c1ccnc2ccc(OC)cc12.O.O.O=S(=O)(O)O [QUININE SULFATE]
Obs Value: Compound NOT metabolized
//
Compound: CCc1oc2ccccc2c1C(=O)c1cc(Br)c(O)c(Br)c1
Obs Value: Compound metabolized
//
Compound: CCN(CC)C(=O)C1(c2ccccc2)CC1CN (configuration not stated)
Obs Value: Compound NOT metabolized
